Attribution: patent EP4545563A1

Target: T1, ITGA2 protein on the surface of human tumor cells (HuCCT1, A431) (human, UniProt P17301 30-1181)
T1 construct: whole, on cells; Endogenously expressed on the cell lines; the cell line of each entry is named under assay or readout; also called Integrin alpha-2; ITGA2-positive HuCCT1 cells
T1 sequence (looked up): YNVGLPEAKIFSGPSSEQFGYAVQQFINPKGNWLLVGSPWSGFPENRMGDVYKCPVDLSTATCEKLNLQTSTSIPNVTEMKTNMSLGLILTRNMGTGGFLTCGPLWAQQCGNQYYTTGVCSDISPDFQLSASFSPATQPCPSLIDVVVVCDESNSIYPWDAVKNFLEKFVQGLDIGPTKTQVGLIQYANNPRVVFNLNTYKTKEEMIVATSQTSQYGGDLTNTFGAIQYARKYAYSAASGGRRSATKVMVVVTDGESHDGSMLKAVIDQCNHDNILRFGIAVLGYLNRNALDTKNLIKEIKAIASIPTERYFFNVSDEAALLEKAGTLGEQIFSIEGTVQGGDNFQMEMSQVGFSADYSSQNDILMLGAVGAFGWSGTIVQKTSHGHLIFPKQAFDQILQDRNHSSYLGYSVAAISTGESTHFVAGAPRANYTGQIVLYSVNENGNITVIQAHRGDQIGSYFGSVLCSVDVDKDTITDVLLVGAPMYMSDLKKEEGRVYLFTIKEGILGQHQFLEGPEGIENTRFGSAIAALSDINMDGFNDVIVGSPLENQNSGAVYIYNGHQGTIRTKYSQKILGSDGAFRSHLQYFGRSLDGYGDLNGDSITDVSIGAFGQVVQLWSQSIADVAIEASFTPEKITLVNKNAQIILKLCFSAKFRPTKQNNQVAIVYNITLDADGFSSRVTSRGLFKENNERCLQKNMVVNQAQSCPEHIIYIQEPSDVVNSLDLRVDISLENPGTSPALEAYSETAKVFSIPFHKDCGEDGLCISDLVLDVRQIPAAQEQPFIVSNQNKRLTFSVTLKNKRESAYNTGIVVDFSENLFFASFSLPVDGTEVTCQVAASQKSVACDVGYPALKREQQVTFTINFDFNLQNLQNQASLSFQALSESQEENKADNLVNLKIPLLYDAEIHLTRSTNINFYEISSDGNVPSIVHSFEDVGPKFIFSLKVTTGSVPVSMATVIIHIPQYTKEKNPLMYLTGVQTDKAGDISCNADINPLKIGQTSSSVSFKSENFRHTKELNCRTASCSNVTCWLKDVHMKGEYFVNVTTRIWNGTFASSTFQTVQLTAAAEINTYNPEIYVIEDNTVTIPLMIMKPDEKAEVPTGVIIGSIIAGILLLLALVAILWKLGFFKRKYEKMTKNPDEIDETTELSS
Experiment: flow cytometry on HuCCT1 cells, goat anti-human IgG (H+L) secondary antibody
Measured pEC50 values are reported for all entries that follow.
Remember the convention: pEC50 equals -log10 of concentration in molar.

These recorded examples may help you get a feel for the data.
Humanized antibody FS002-A15 (antibody, human IgG1, kappa, V domains shown, IgG1 heavy chain, kappa light chain) VH: RLQLQESGPGLVKPSQTLSLTCTVSGGSISSGGYYWSWIRQHPGKGLEWIGYIYYSGSTYYNPSLKSRVTISVDTSKNQFSLKLSSVTAADTAVYYCARATIYGYFDYWGQGTLVTVSS VL: EIVLTQSPATLPLSPGERATLSCRASQSVGFYLAWYQQKPGQPPRLLFYDASKRATGIPARFSASGSGTDFTLTISGLEPEDFAVYYCQHRISWPLTFGQGTKVEVKR	9.03
Humanized antibody FS002-C241 (antibody, human IgG1, lambda, V domains shown, IgG1 heavy chain, lambda light chain) VH: RLQLQESGPGLVKPSETLSLTCTVSGGSISSSSYYWGWIRQPPGKGLEWIGSIYYSGSTYYNPSLKSRVTISVDTSKNQFSLKLSSVTAADTAVYYCARRYSYGRDAFDIWGQGTMVTVSS VL: QSALTQPASVSGSPGQSITISCSGTSSDIGRYNYVSWYQQHPGKAPKLLIFDVSNRPSGVSNRFSGSKSGNTASLTISGLQAEDEADYYCSSYTSTVPYVFGTGTRVAVQG	8.62

**Query** For the binder shown here, Humanized antibody FS002-A66 (antibody, human IgG1, kappa, V domains shown, IgG1 heavy chain, kappa light chain) VH: EVQLVESGGGVVQPGRSLRLSCAASGFTFSSYAMHWVRQAPGKGLEWVAVISYDGSNKYYVDSVKGRFTISRDNSKNTLYLQMNSLRAEDTAVYYCARDRITYLDYYYYGMDVWGQGTTVTVSS VL: EIVLTQSPAILSLSPGERATLSCRASQSVSEYLAWYQQKPGQAPRLLIYDISNRATGIPARFSGSGSETDFTLTISSLEPEDFAVYYCQQRRTWPLTFGPGTKVDIKR , give the reported pEC50.
**Result** 8.63
